target: P. falciparum dihydroorotate dehydrogenase (pfDHODH) (Plasmodium falciparum); test: biochemical; settings: read-out: IC50 pf DHODH
Sequence (Q08210 24-569): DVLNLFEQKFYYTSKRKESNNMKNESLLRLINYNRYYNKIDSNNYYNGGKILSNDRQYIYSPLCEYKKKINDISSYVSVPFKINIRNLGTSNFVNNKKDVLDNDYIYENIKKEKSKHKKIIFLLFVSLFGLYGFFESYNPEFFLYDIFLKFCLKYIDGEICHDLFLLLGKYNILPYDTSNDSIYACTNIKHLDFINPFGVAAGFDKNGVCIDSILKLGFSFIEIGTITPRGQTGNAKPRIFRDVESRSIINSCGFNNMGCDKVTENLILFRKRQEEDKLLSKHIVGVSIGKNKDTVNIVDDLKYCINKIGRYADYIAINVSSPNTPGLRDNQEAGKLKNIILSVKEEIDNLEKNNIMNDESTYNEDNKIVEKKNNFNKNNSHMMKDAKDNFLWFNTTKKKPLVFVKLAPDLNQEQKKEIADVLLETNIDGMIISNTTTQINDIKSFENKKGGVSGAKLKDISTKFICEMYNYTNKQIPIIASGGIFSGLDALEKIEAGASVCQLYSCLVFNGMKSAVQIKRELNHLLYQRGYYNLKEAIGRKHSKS
For each record, write down the corresponding IC50.
# value in nM; strip the unit string

Ask: Recorded IC50 for Cc1cc(Nc2ccc3c(=O)ccoc3c2)n2ncnc2n1 , please?
Reply: 1900

Ask: Request the reported IC50 associated with Cc1nc2ncnn2c(Nc2ccc3cc4ccccc4cc3c2)c1C
Reply: 250

Ask: May I ask what IC50 has been recorded for CCc1cc(Nc2ccc3ccccc3c2)n2ncnc2n1 ?
Reply: 280

Ask: GET /values?readout=IC50&item= Cc1nc2ncnn2c(Nc2ccc3ccccc3c2)c1C
Reply: 130

Ask: Given the molecule Cc1cc(Nc2cc3ccccc3cc2O)n2ncnc2n1 , what is its reported IC50?
Reply: 2400

Ask: Would you kindly share the measured IC50 for FC(F)(F)c1cc(Nc2ccc3ccccc3c2)n2ncnc2n1 ?
Reply: 126

Ask: Data request, read-out IC50, for Cc1cc(Nc2cnc3ccccc3c2)n2ncnc2n1
Reply: 2000

Ask: Requested read-out: IC50. Entry: Cc1cc(Nc2ccc3cc4ccccc4cc3c2)n2ncnc2n1
Reply: 23

Ask: Query: IC50; subject: CCc1cc(Nc2ccc3cc4ccccc4cc3c2)n2ncnc2n1
Reply: 240

---

For each record, write down the corresponding pEC50.
system: P. falciparum 3D7; assay: 3H-hypoxanthine uptake in P. falciparum-infected erythrocytes in culture (whole cell assay); assay type: cell-based; settings: Plasmodium falciparum, Erythrocyte; 3D7 strain, in vitro
Please treat pEC50 as minus the base-10 logarithm of the molar concentration.

Ask: // lookup pEC50 for Cc1cc(Nc2ccc3ccccc3c2)n2ncnc2n1
Reply: 7.30

Ask: What value of pEC50 has been recorded for this entry: Cc1cc(Nc2ccc3cc4ccccc4cc3c2)n2ncnc2n1
Reply: 6.92

Ask: So what does the record say about pEC50 for Cc1cc(Nc2cc3ccccc3cc2O)n2ncnc2n1 ?
Reply: 6.22

---

target: P. falciparum dihydroorotate dehydrogenase (pfDHODH) (Plasmodium falciparum); assay: biochemical
QUANTITY: IC50 (nM)
Express the result in nM but write the number alone.

Ask: Look at this compound and give its reported IC50. Cc1cc(Nc2ccc3ncccc3c2)n2ncnc2n1
Reply: 1300

---

pIC50: −log10 of the molar value.
human dihydroorotate dehydrogenase (hDHODH) (Homo sapiens) data, read-out pIC50
Sequence (Q02127 whole entry): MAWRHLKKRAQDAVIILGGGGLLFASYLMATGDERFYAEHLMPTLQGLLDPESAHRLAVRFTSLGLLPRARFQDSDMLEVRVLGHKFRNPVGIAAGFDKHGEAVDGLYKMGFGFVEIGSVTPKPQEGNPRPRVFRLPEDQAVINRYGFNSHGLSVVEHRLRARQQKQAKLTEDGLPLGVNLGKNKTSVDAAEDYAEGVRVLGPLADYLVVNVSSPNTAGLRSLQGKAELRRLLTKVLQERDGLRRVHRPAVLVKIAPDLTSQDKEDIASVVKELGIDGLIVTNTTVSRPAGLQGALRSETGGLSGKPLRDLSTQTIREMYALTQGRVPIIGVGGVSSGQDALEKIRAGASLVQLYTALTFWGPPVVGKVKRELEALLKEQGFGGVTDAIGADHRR

Ask: Which pIC50 is reported for this compound? Cc1cc(Nc2ccc3ncccc3c2)n2ncnc2n1
Reply: < 3.70

Ask: Recorded pIC50 of Cc1cc(Nc2ccc3ccccc3c2)n2ncnc2n1 , please.
Reply: < 3.22

Ask: Fill in: pIC50 of Cc1cc(Nc2ccc3cc4ccccc4cc3c2)n2ncnc2n1 is ___
Reply: < 3.70

Ask: What measured pIC50 goes with Cc1cc(Nc2cnc3ccccc3c2)n2ncnc2n1 ?
Reply: < 3.70

The values you see were collected from patent US20080027079A1.
